Molecular target: T1, cynomolgus soluble urokinase plasminogen activator receptor (cynomolgus suPAR) (cynomolgus, UniProt Q9GK78 23-303, limits assumed)
T1 construct: also called cynomolgus uPAR; cynoPLAUR-His
T1 sequence (Q9GK78 23-303 limits assumed): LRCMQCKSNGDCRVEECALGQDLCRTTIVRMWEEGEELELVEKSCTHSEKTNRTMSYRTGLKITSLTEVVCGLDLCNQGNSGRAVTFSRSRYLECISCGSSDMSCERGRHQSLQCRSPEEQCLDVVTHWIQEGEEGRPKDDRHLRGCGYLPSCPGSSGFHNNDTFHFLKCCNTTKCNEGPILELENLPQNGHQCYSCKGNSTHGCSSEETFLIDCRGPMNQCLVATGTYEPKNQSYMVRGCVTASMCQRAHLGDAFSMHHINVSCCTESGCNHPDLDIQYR
Test: BLI (Octet) off-rate screen of scFv
Decide by koff: equal to or exceeding 0.0003 s⁻¹ means T, less means F.

| binder | class |
| --- | --- |
| suPAR_DB02_B06 (scFv, V domains shown, Screened as scFv) VH: QVQLVQSGAEVKKPGASVKVSCKASGDTFTSYYMHWVRQAPGQGLEWMGWIDHEGGSTIYAQQFQGRVTMTRDTSTSTVYMELSSLRSEDTAVYYCARGYDVDWFVYWGQGTLVTVSS VL: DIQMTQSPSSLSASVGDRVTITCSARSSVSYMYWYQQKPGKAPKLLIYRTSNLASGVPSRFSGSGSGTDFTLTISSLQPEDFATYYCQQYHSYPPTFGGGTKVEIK | F |
| suPAR_DB02_B03 (scFv, V domains shown, Screened as scFv) VH: QVQLVQSGAEVKKPGASVKVSCKASGYTFIGNYIHWVRQAPGQGLEWMGWIDHENGSTIYDQKFQGRVTMTRDTSTSTVYMELSSLRSEDTAVYYCARGSDVDWFVYWGQGTLVTVSS VL: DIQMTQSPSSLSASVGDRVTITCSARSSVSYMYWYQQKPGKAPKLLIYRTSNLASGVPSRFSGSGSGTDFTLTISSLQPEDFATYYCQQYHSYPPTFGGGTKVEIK | T |
| suPAR_DB02_C01 (scFv, V domains shown, Screened as scFv) VH: QVQLVQSGAEVKKPGASVKVSCKASGYTFTGYYMHWVRQAPGQGLEWMGWIDPENGSTIYDQKFQGRVTMTRDTSTSTVYMELSSLRSEDTAVYYCARGYDVDWFVYWGQGTLVTVSS VL: DIQMTQSPSSLSASVGDRVTITCRARQSVSYMYWYQQKPGKAPKLLIYRTSNLASGVPSRFSGSGSGTDFTLTISSLQPEDFATYYCQQYHSYPPTFGGGTKVEIK | F |
| suPAR_DB02_C05 (scFv, V domains shown, Screened as scFv) VH: QVQLVQSGAEVKKPGASVKVSCKASGGTFSSYYMHWVRQAPGQGLEWMGWIDHENGNTIYDQKFQGRVTMTRDTSTSTVYMELSSLRSEDTAVYYCARGYDVDWFVYWGQGTLVTVSS VL: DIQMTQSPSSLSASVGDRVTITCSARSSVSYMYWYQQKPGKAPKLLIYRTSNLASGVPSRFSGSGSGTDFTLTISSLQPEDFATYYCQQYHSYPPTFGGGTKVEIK | F |
| suPAR_DB01_G10 (scFv, V domains shown, Screened as scFv) VH: QVQLVQSGAEVKKPGASVKVSCKASGYTFTNYYMHWVRQAPGQGLEWMGWIDHEGGNTSYAQKFQGRVTMTRDTSTSTVYMELSSLRSEDTAVYYCARGYDVDWFVYWGQGTLVTVSS VL: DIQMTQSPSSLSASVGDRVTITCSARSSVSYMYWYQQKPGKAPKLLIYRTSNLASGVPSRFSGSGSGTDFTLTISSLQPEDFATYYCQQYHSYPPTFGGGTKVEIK | F |
